system: CP192; experiment: qHTS profiling for inhibitors of Plasmodium falciparum proliferation (AID 504749); also: nearly all actives have a fitted effect of over 60% in size; conditions: P. falciparum in erythrocytes, SYBR Green DNA, 72 h; series mostly up to 12.8 µM
Records with an inconclusive call do not appear. Active and inactive are the calls of the source. Calls follow the shape of the dose curve; as a rule, active = well fitted inhibition curve with a large enough effect; inconclusive = small, poorly fitted or top-dose-only effect; inactive = flat fitted curve, though single readings scatter.
Possible outcomes: YES (active), NO (inactive)

- COc1cc2nc(N3CCN(C(=O)[C@@H]4CCCO4)CC3)nc(N)c2cc1OC: NO
- C[C@]12CCC(=O)C=C1CCC1C2C(=O)C[C@]2(C)C1CC[C@]2(O)C(=O)CO (stereo partly specified): NO
- CS(=O)(=O)c1ccc([C@H](O)[C@H](CO)NC(=O)C(Cl)Cl)cc1: NO
- CO[C@H]1[C@@H](OC(N)=O)[C@H](O)[C@@H](Oc2ccc3c(O)c(NC(=O)c4ccc(O)c(CC=C(C)C)c4)c(=O)oc3c2C)OC1(C)C: NO
- O=C(O)COCCN1CCN([C@@H](c2ccccc2)c2ccc(Cl)cc2)CC1: NO
- CC[C@](C)(CN(C)C)OC(=O)c1ccccc1: NO
- C[C@@H]1O[C@H](O[C@@H]2\C=C/C=C\C=C/C=C\C[C@H](C)OC(=O)/C=C\[C@H]3O[C@@H]3C[C@H](O)C[C@]3(O)C[C@@H](O)[C@@H](C(=O)O)[C@H](C2)O3)[C@@H](O)[C@H](N)[C@@H]1O (stereo in doubt): NO
- CN(C)CCCOC1C(C(O)CO)OC2OC(C)(C)O[C@@H]21 (stereo partly specified): NO
- NS(=O)(=O)c1cc2c(cc1Cl)N[C@@H](C(Cl)Cl)NS2(=O)=O: NO
- COC1C=CO[C@@]2(C)Oc3c(C)c(O)c4c(O)c(c5c(nc6cc(C)ccn65)c4c3C2=O)NC(=O)/C(C)=C\C=CC(C)C(O)[C@@H](C)C(O)C(C)[C@@H](OC(C)=O)C1C (stereo partly specified): YES
- CNC1C(OC2C(O[C@@H]3C(O)C(O)[C@@H](N=C(N)N)C(O)C3N=C(N)N)OC(C)[C@@]2(O)CO)OC(CO)C(O)C1O (stereo partly specified): NO
- CCN[C@@H]1C[C@H](N)[C@H](O[C@H]2OC(CN)=CC[C@H]2N)[C@@H](O)[C@H]1O[C@H]1OC[C@@](C)(O)[C@@H](NC)[C@@H]1O: NO
- CN1CCC[C@@H](CC2c3ccccc3Sc3ccccc32)C1: NO
- CN[C@H]1[C@@H](O)[C@@H](NC)[C@@H]2O[C@@]3(O)C(=O)C[C@@H](C)O[C@H]3O[C@H]2[C@H]1O: NO
- CC(=O)C[C@H](c1ccc([N+](=O)[O-])cc1)c1c(O)c2ccccc2oc1=O: NO
- CN(C)CCc1c[nH]c2ccc(CC3COC(=O)N3)cc12 (stereo unspecified): NO

Data origin: PubChem BioAssay (NCATS)
